# TEST_DESCRIPTION: qHTS RealTime-Glo MT Cell Viability Assay in HepG2 cells - 0 hour (AID 1224889); further: on the % scale 0 is the no-effect control and ±100 the full control effect; nearly all actives have a fitted effect of over 50% in size
# STUDY_CONDITIONS: RealTime-Glo luminescence; series mostly up to 76.8 µM
Results filed as inconclusive are left out. Active and inactive are the calls of the source. The call rests on the fitted dose curve; in most records, active means well fitted cell-killing curve with a large enough effect in the repeat runs; inconclusive means weak or mixed curves, or effect the other way; inactive means flat fitted curve, though single readings scatter.
REPORTED_ENDPOINT: activity change, negative = cytotoxicity

[
  {
    "COMPOUND": "OCCCCC(O)CO (stereo not drawn)",
    "VALUE_MEASURED": "inactive"
  },
  {
    "COMPOUND": "O=C1c2ccccc2C(=O)c2cc(S(=O)(=O)O)ccc21",
    "VALUE_MEASURED": "inactive"
  },
  {
    "COMPOUND": "Cc1nc2n(c(=O)c1CCN1CCC(c3noc4cc(F)ccc34)CC1)CCC[C@H]2O",
    "VALUE_MEASURED": "2.14% [at 15.8 µM] (inactive)"
  },
  {
    "COMPOUND": "c1ccc2nccnc2c1",
    "VALUE_MEASURED": "inactive"
  },
  {
    "COMPOUND": "CC(C)CCCCOC(=O)c1ccccc1C(=O)OCCCCC(C)C",
    "VALUE_MEASURED": "inactive"
  },
  {
    "COMPOUND": "NC(CO)C(=O)NNCc1ccc(O)c(O)c1O (stereo not drawn)",
    "VALUE_MEASURED": "inactive"
  },
  {
    "COMPOUND": "CN1CCN(CC(=O)N2c3ccccc3C(=O)Nc3cccnc32)CC1",
    "VALUE_MEASURED": "2.23% [at 6.97 µM] (inactive)"
  },
  {
    "COMPOUND": "Cc1ccccc1C(=O)Nc1ccc(C(=O)N2CCCC(N(C)C)c3ccccc32)cc1 (stereo not drawn)",
    "VALUE_MEASURED": "inactive"
  },
  {
    "COMPOUND": "CC(C)=O",
    "VALUE_MEASURED": "inactive"
  },
  {
    "COMPOUND": "c1ccc2c(c1)ccc1c3ccccc3ccc21",
    "VALUE_MEASURED": "inactive"
  },
  {
    "COMPOUND": "COc1cc(C(=S)N2CCOCC2)cc(OC)c1OC",
    "VALUE_MEASURED": "inactive"
  },
  {
    "COMPOUND": "Nc1ccc(S(=O)(=O)Nc2ccc(Cl)nn2)cc1",
    "VALUE_MEASURED": "inactive"
  },
  {
    "COMPOUND": "Cc1[nH]cnc1-c1ccc(Cl)cc1",
    "VALUE_MEASURED": "inactive"
  }
]

* * *

# TEST_DESCRIPTION: qHTS assay to identify small molecule agonists of the TGF-beta/Smad signaling pathway - cell viability counter screen (AID 1346829); further: top concentration of the series differs between compounds; on the % scale 0 is the no-effect control and ±100 the full control effect; nearly all actives have a fitted effect of over 45% in size
# STUDY_CONDITIONS: SBE-bla HEK293T viability, CellTiter-Glo luminescence, 5 h; series mostly up to 76.8 µM
Records with an inconclusive call do not appear. Activity calls are given as the source filed them. Calls follow the shape of the dose curve; as a rule, active = well fitted cell-killing curve with a large enough effect in the repeat runs; inconclusive = weak or mixed curves, or effect the other way; inactive = flat fitted curve, though single readings scatter.
REPORTED_ENDPOINT: activity change, negative = cytotoxicity

[
  {
    "COMPOUND": "C=C(C)C(=O)OCc1ccccc1",
    "REPORTED_ENDPOINT": "activity change, negative = cytotoxicity",
    "VALUE_MEASURED": "inactive"
  },
  {
    "COMPOUND": "CC[C@H](C)C(=O)O[C@H]1C[C@H](O)C=C2C=C[C@H](C)[C@H](CC[C@@H](O)C[C@@H](O)CC(=O)O)[C@H]21",
    "REPORTED_ENDPOINT": "activity change, negative = cytotoxicity",
    "VALUE_MEASURED": "inactive"
  },
  {
    "COMPOUND": "CCCCCCCCC1CCC(=O)O1 (configuration not stated)",
    "REPORTED_ENDPOINT": "activity change, negative = cytotoxicity",
    "VALUE_MEASURED": "inactive"
  },
  {
    "COMPOUND": "CCN(C)C(=O)Oc1cccc([C@H](C)N(C)C)c1",
    "REPORTED_ENDPOINT": "activity change, negative = cytotoxicity",
    "VALUE_MEASURED": "inactive"
  },
  {
    "COMPOUND": "CC(C)OC(=O)CCCCC(=O)OC(C)C",
    "REPORTED_ENDPOINT": "activity change, negative = cytotoxicity",
    "VALUE_MEASURED": "inactive"
  },
  {
    "COMPOUND": "CC(=O)NCc1c(I)c(NC(C)=O)c(I)c(C(=O)O)c1I",
    "REPORTED_ENDPOINT": "activity change, negative = cytotoxicity",
    "VALUE_MEASURED": "inactive"
  },
  {
    "COMPOUND": "OCCC(F)(F)C(F)(F)C(F)(F)C(F)(F)C(F)(F)C(F)(F)C(F)(F)C(F)(F)F",
    "REPORTED_ENDPOINT": "activity change, negative = cytotoxicity",
    "VALUE_MEASURED": "inactive"
  },
  {
    "COMPOUND": "COC(=O)[C@@H]1[C@H]2C[C@H]3c4[nH]c5ccccc5c4CCN3C[C@@H]2CC[C@@H]1O",
    "REPORTED_ENDPOINT": "activity change, negative = cytotoxicity",
    "VALUE_MEASURED": "inactive"
  },
  {
    "COMPOUND": "CC(C)NCC(O)COc1ccc(COCCOC(C)C)cc1 (configuration not stated)",
    "REPORTED_ENDPOINT": "activity change, negative = cytotoxicity",
    "VALUE_MEASURED": "inactive"
  },
  {
    "COMPOUND": "CCCCCOC(=O)CCC",
    "REPORTED_ENDPOINT": "activity change, negative = cytotoxicity",
    "VALUE_MEASURED": "inactive"
  },
  {
    "COMPOUND": "CCO[Si](CCCS)(OCC)OCC",
    "REPORTED_ENDPOINT": "activity change, negative = cytotoxicity",
    "VALUE_MEASURED": "inactive"
  },
  {
    "COMPOUND": "O=C(O)c1ccc(Cl)cc1Cl",
    "REPORTED_ENDPOINT": "activity change, negative = cytotoxicity",
    "VALUE_MEASURED": "inactive"
  }
]
